Test system: NCI-H1341 complex spheroids, percent test/control
Assay: Anticancer human tumor NCI-H1341 cell line growth inhibition [AhR];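 further: spheroids exposed to agents for seven days before readout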
Conditions: second compound 0.316 µM; first compound 0.000316 µM; active compounds read low
measurement kind: viability, T/C (%)

# compound, test value
data = [
    ("Cn1ncnc1C1c2n[nH]c(=O)c3cc(F)cc(c23)NC1c1ccc(F)cc1 (stereo not drawn) + Cc1ccccc1N=Nc1ccc(NC(=O)c2ccnn2C)c(C)c1", 89.9),
    ("CC[C@@]1(O)C(=O)OCc2c1cc1n(c2=O)Cc2cc3c(CN(C)C)c(O)ccc3nc2-1 + Cc1cncc(-c2nc(NCCc3c[nH]c4ccccc34)c3ncn(C(C)C)c3n2)c1", 67.3),
    ("CC[C@@]1(O)C(=O)OCc2c1cc1n(c2=O)Cc2cc3c(CN(C)C)c(O)ccc3nc2-1 + CC(CO)NC(=O)c1cc(-c2ccc(Cl)cc2)nn(-c2cnn(C)c2)c1=O", 84.4),
]

* * *

System: NCI-H1341 complex spheroids, percent test/control
Assay: Anticancer human tumor NCI-H1341 cell line growth inhibition [AhR];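 further: spheroids exposed to agents for seven days before readout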
Conditions: second compound 0.1 µM; first compound 3.16 µM; active compounds read low
Binary call on viability, T/C with cut-off 20%: strictly below means fulfilled, and equality or higher means not fulfilled.

# molecule, label
measured = [
    ("COc1cc(C2c3cc4c(cc3C(OC3OC5COC(C)OC5C(O)C3O)C3COC(=O)C23)OCO4)cc(OC)c1O (configuration not stated) + Cc1cncc(-c2nc(NCCc3c[nH]c4ccccc34)c3ncn(C(C)C)c3n2)c1", "not fulfilled"),
    ("COc1cc(Nc2ncc3c(n2)-c2ccc(Cl)cc2C(c2c(F)cccc2OC)=NC3)ccc1C(=O)O + Cc1cncc(-c2nc(NCCc3c[nH]c4ccccc34)c3ncn(C(C)C)c3n2)c1", "not fulfilled"),
    ("COc1cccc2c1C(=O)c1c(O)c3c(c(O)c1C2=O)CC(O)(C(=O)CO)CC3OC1CC(N)C(O)C(C)O1 (configuration not stated) + Cc1ccccc1N=Nc1ccc(NC(=O)c2ccnn2C)c(C)c1", "fulfilled"),
    ("NS(=O)(=O)OCC1CC(n2ccc3c(NC4CCc5ccccc54)ncnc32)CC1O (configuration not stated) + Cc1ccccc1N=Nc1ccc(NC(=O)c2ccnn2C)c(C)c1", "fulfilled"),
    ("COc1ccc([C@@H](O)c2cc(-c3ncnc4cc(N5CCOCC5)ccc34)c(F)cc2Cl)nn1 + CC(CO)NC(=O)c1cc(-c2ccc(Cl)cc2)nn(-c2cnn(C)c2)c1=O", "not fulfilled"),
    ("Nc1ccn(C2OC(CO)C(O)C2(F)F)c(=O)n1 (configuration not stated) + CC(CO)NC(=O)c1cc(-c2ccc(Cl)cc2)nn(-c2cnn(C)c2)c1=O", "not fulfilled"),
    ("CC1COCCN1c1cc(C2(S(C)(=N)=O)CC2)nc(-c2ccnc3[nH]ccc23)n1 (configuration not stated) + CC(CO)NC(=O)c1cc(-c2ccc(Cl)cc2)nn(-c2cnn(C)c2)c1=O", "not fulfilled"),
    ("Nc1ccn(C2OC(CO)C(O)C2(F)F)c(=O)n1 (configuration not stated) + Cc1ccccc1N=Nc1ccc(NC(=O)c2ccnn2C)c(C)c1", "not fulfilled"),
    ("Nc1ccccc1NC(=O)c1ccc(CNC(=O)OCc2cccnc2)cc1 + CC(CO)NC(=O)c1cc(-c2ccc(Cl)cc2)nn(-c2cnn(C)c2)c1=O", "fulfilled"),
    ("COc1cccc2c1C(=O)c1c(O)c3c(c(O)c1C2=O)CC(O)(C(=O)CO)CC3OC1CC(N)C(O)C(C)O1 (configuration not stated) + Cc1cncc(-c2nc(NCCc3c[nH]c4ccccc34)c3ncn(C(C)C)c3n2)c1", "fulfilled"),
    ("Nc1ccn(C2OC(CO)C(O)C2(F)F)c(=O)n1 (configuration not stated) + Cc1cncc(-c2nc(NCCc3c[nH]c4ccccc34)c3ncn(C(C)C)c3n2)c1", "not fulfilled"),
    ("NS(=O)(=O)OCC1CC(n2ccc3c(NC4CCc5ccccc54)ncnc32)CC1O (configuration not stated) + CC(CO)NC(=O)c1cc(-c2ccc(Cl)cc2)nn(-c2cnn(C)c2)c1=O", "fulfilled"),
]

* * *

Tested on: NCI-H1341 complex spheroids, percent test/control
Assay: Anticancer human tumor NCI-H1341 cell line growth inhibition [AhR];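 further: spheroids exposed to agents for seven days before readout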
Conditions: second compound 10 µM; first compound 0.00949 µM; active compounds read low
Entries and their measured viability, T/C follow.

# compound, measure unit, viability, T/C
rows = [
    ("CCc1c2c(nc3ccc(O)cc13)-c1cc3c(c(=O)n1C2)COC(=O)[C@]3(O)CC + Cc1ccccc1N=Nc1ccc(NC(=O)c2ccnn2C)c(C)c1", "%", 48.4),
    ("CCN(c1cc(-c2ccc(CN3CCOCC3)cc2)cc(C(=O)NCc2c(C)cc(C)[nH]c2=O)c1C)C1CCOCC1 + CC(CO)NC(=O)c1cc(-c2ccc(Cl)cc2)nn(-c2cnn(C)c2)c1=O", "%", 67.5),
    ("CCc1c2c(nc3ccc(O)cc13)-c1cc3c(c(=O)n1C2)COC(=O)[C@]3(O)CC + CC(CO)NC(=O)c1cc(-c2ccc(Cl)cc2)nn(-c2cnn(C)c2)c1=O", "%", 43.8),
]

* * *

Listed here: items and their measured viability, T/C.
Test system: NCI-H1341 complex spheroids, percent test/control
Experiment: Anticancer human tumor NCI-H1341 cell line growth inhibition [AhR];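 further: spheroids exposed to agents for seven days before readout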
Conditions: second compound 1 µM; first compound 3.16 µM; active compounds read low

# compound, measured target, viability, T/C (%)
records = [
    ("COc1cc(Nc2ncc3c(n2)-c2ccc(Cl)cc2C(c2c(F)cccc2OC)=NC3)ccc1C(=O)O + Cc1cncc(-c2nc(NCCc3c[nH]c4ccccc34)c3ncn(C(C)C)c3n2)c1", "NCI-H1341 complex spheroids, percent test/control", 25.8),
    ("Nc1ccn(C2OC(CO)C(O)C2(F)F)c(=O)n1 (stereo not drawn) + Cc1ccccc1N=Nc1ccc(NC(=O)c2ccnn2C)c(C)c1", "NCI-H1341 complex spheroids, percent test/control", 31.1),
    ("COc1cc(Nc2ncc3c(n2)-c2ccc(Cl)cc2C(c2c(F)cccc2OC)=NC3)ccc1C(=O)O + CC(CO)NC(=O)c1cc(-c2ccc(Cl)cc2)nn(-c2cnn(C)c2)c1=O", "NCI-H1341 complex spheroids, percent test/control", 33.1),
    ("CC(C)c1c(-c2ccccc2)nc2c(C#N)c[nH]n2c1=O + CC(CO)NC(=O)c1cc(-c2ccc(Cl)cc2)nn(-c2cnn(C)c2)c1=O", "NCI-H1341 complex spheroids, percent test/control", 76.2),
    ("CC1COCCN1c1cc(C2(S(C)(=N)=O)CC2)nc(-c2ccnc3[nH]ccc23)n1 (stereo not drawn) + Cc1ccccc1N=Nc1ccc(NC(=O)c2ccnn2C)c(C)c1", "NCI-H1341 complex spheroids, percent test/control", 48.6),
    ("O=C(C=Cc1cccc(S(=O)(=O)Nc2ccccc2)c1)NO + Cc1ccccc1N=Nc1ccc(NC(=O)c2ccnn2C)c(C)c1", "NCI-H1341 complex spheroids, percent test/control", 6.42),
    ("COc1cc(C2c3cc4c(cc3C(OC3OC5COC(C)OC5C(O)C3O)C3COC(=O)C23)OCO4)cc(OC)c1O (stereo not drawn) + CC(CO)NC(=O)c1cc(-c2ccc(Cl)cc2)nn(-c2cnn(C)c2)c1=O", "NCI-H1341 complex spheroids, percent test/control", 41.3),
    ("NS(=O)(=O)OCC1CC(n2ccc3c(NC4CCc5ccccc54)ncnc32)CC1O (stereo not drawn) + Cc1cncc(-c2nc(NCCc3c[nH]c4ccccc34)c3ncn(C(C)C)c3n2)c1", "NCI-H1341 complex spheroids, percent test/control", 15.7),
    ("COc1cc(C2c3cc4c(cc3C(OC3OC5COC(C)OC5C(O)C3O)C3COC(=O)C23)OCO4)cc(OC)c1O (stereo not drawn) + Cc1cncc(-c2nc(NCCc3c[nH]c4ccccc34)c3ncn(C(C)C)c3n2)c1", "NCI-H1341 complex spheroids, percent test/control", 40.5),
    ("COc1cc(C2c3cc4c(cc3C(OC3OC5COC(C)OC5C(O)C3O)C3COC(=O)C23)OCO4)cc(OC)c1O (stereo not drawn) + Cc1ccccc1N=Nc1ccc(NC(=O)c2ccnn2C)c(C)c1", "NCI-H1341 complex spheroids, percent test/control", 44.7),
    ("CC1(C)CCC(CN2CCN(c3ccc(C(=O)NS(=O)(=O)c4ccc(NCC5CCOCC5)c([N+](=O)[O-])c4)c(Oc4cnc5[nH]ccc5c4)c3)CC2)=C(c2ccc(Cl)cc2)C1 + Cc1ccccc1N=Nc1ccc(NC(=O)c2ccnn2C)c(C)c1", "NCI-H1341 complex spheroids, percent test/control", 34.6),
    ("Nc1ccccc1NC(=O)c1ccc(CNC(=O)OCc2cccnc2)cc1 + Cc1cncc(-c2nc(NCCc3c[nH]c4ccccc34)c3ncn(C(C)C)c3n2)c1", "NCI-H1341 complex spheroids, percent test/control", 5.68),
    ("NS(=O)(=O)OCC1CC(n2ccc3c(NC4CCc5ccccc54)ncnc32)CC1O (stereo not drawn) + CC(CO)NC(=O)c1cc(-c2ccc(Cl)cc2)nn(-c2cnn(C)c2)c1=O", "NCI-H1341 complex spheroids, percent test/control", 4.46),
    ("COc1cccc2c1C(=O)c1c(O)c3c(c(O)c1C2=O)CC(O)(C(=O)CO)CC3OC1CC(N)C(O)C(C)O1 (stereo not drawn) + Cc1ccccc1N=Nc1ccc(NC(=O)c2ccnn2C)c(C)c1", "NCI-H1341 complex spheroids, percent test/control", 2.36),
    ("O=C(C=Cc1cccc(S(=O)(=O)Nc2ccccc2)c1)NO + CC(CO)NC(=O)c1cc(-c2ccc(Cl)cc2)nn(-c2cnn(C)c2)c1=O", "NCI-H1341 complex spheroids, percent test/control", 5.09),
    ("COc1ccc([C@@H](O)c2cc(-c3ncnc4cc(N5CCOCC5)ccc34)c(F)cc2Cl)nn1 + Cc1cncc(-c2nc(NCCc3c[nH]c4ccccc34)c3ncn(C(C)C)c3n2)c1", "NCI-H1341 complex spheroids, percent test/control", 17.4),
    ("COc1cccc2c1C(=O)c1c(O)c3c(c(O)c1C2=O)CC(O)(C(=O)CO)CC3OC1CC(N)C(O)C(C)O1 (stereo not drawn) + CC(CO)NC(=O)c1cc(-c2ccc(Cl)cc2)nn(-c2cnn(C)c2)c1=O", "NCI-H1341 complex spheroids, percent test/control", 1.46),
    ("Nc1ccccc1NC(=O)c1ccc(CNC(=O)OCc2cccnc2)cc1 + Cc1ccccc1N=Nc1ccc(NC(=O)c2ccnn2C)c(C)c1", "NCI-H1341 complex spheroids, percent test/control", 7.04),
    ("CC1(C)CCC(CN2CCN(c3ccc(C(=O)NS(=O)(=O)c4ccc(NCC5CCOCC5)c([N+](=O)[O-])c4)c(Oc4cnc5[nH]ccc5c4)c3)CC2)=C(c2ccc(Cl)cc2)C1 + CC(CO)NC(=O)c1cc(-c2ccc(Cl)cc2)nn(-c2cnn(C)c2)c1=O", "NCI-H1341 complex spheroids, percent test/control", 41.4),
    ("COc1ccc([C@@H](O)c2cc(-c3ncnc4cc(N5CCOCC5)ccc34)c(F)cc2Cl)nn1 + Cc1ccccc1N=Nc1ccc(NC(=O)c2ccnn2C)c(C)c1", "NCI-H1341 complex spheroids, percent test/control", 21.6),
    ("COc1cccc2c1C(=O)c1c(O)c3c(c(O)c1C2=O)CC(O)(C(=O)CO)CC3OC1CC(N)C(O)C(C)O1 (stereo not drawn) + Cc1cncc(-c2nc(NCCc3c[nH]c4ccccc34)c3ncn(C(C)C)c3n2)c1", "NCI-H1341 complex spheroids, percent test/control", 1.66),
    ("COc1cc(Nc2ncc3c(n2)-c2ccc(Cl)cc2C(c2c(F)cccc2OC)=NC3)ccc1C(=O)O + Cc1ccccc1N=Nc1ccc(NC(=O)c2ccnn2C)c(C)c1", "NCI-H1341 complex spheroids, percent test/control", 31.4),
    ("O=C(C=Cc1cccc(S(=O)(=O)Nc2ccccc2)c1)NO + Cc1cncc(-c2nc(NCCc3c[nH]c4ccccc34)c3ncn(C(C)C)c3n2)c1", "NCI-H1341 complex spheroids, percent test/control", 5.39),
]
